molecular target: RSV fusion glycoprotein (RSV F) on RSV-A2 virus (respiratory syncytial virus, UniProt P03420 26-574); experiment: cell-based or functional assay
OBSERVED_PROPERTY: Neutralization IC50 (RSV subtype A)

Task: Fill in the blank: the reported Neutralization IC50 (RSV subtype A) of ADI-41447 (antibody, V domains shown, IgG1) VH: EVQLLESGGGLVQPGGSLRLSCAASGFTFSTYAMNWVRQAPGKGLEWVSTISGSGGSTYYGDSVKGRFTISRDNSKNTLYLQMNSLRAEDTAVYYCAKAPTPWCSGGSCYVSYWGQGTLVTVSS VL: DIVMTQTPGTLSLSPGERGTLSCRASQSVSSSYLAWYQQKPGQAPRLLIYGASSRATGIPDRFGGSGSGTDFTLTISTLEPEDFAVYYCQQYQSSPWTFGQGTKLEIK is ____.
Result: > 25 µg/mL

Task: Fill in the blank: the reported Neutralization IC50 (RSV subtype A) of ADI-41407 (antibody, V domains shown, IgG1) VH: EVQLVESGGGLVQPGGSLRLSCAASGFTFSSNAMSWVRQAPGKGLEWVSYISGGSATKSYADSVKGRFTISRDNSKNTLYLQMKSLRAEDTAVYYCVGGSAYYSGFDYWGQGTLVTVSS VL: DIVMTQSPSSLSASVGDRVTISCRASQDIRNYLAWYQQKPGKVPNLLIYAASTLESGVPSRFSGSGYGTDFTLTISGLQPEDVATYYCQKYDSAPPFTFGPGTKVDIK is ____.
Result: > 25 µg/mL

Task: Fill in the blank: the reported Neutralization IC50 (RSV subtype A) of ADI-41391 (antibody, V domains shown, IgG1) VH: EVQLLESGPGLVKPSETLSLTCTVSGGSISGYYWSWIRQPPGKGLEWIGYIYHSGGSTNYNPSLKSRVTISVDTSKNQFSLKVSSVTAADTAVYYCARLARVVTTFDFWGQGALVTVSS VL: QPVLTQPASVSGSPGQSITISCTGTSSDVGGYNYVSWYQQKPGTAPKLMIFDVSNRPSGVSNRFSGSKSDNTASLTISGLQAEDEADYYCSSYTSSTNLVFGGGTKLTVL is ____.
Result: > 25 µg/mL

These measurements were taken from patent US20260258115A1.
